Target: 5-HT2A receptors (Rattus norvegicus, UniProt P14842)
Construct: The assay tissue was rat cortex; from tissue; host or cells: rat cortex
Sequence (P14842 whole entry): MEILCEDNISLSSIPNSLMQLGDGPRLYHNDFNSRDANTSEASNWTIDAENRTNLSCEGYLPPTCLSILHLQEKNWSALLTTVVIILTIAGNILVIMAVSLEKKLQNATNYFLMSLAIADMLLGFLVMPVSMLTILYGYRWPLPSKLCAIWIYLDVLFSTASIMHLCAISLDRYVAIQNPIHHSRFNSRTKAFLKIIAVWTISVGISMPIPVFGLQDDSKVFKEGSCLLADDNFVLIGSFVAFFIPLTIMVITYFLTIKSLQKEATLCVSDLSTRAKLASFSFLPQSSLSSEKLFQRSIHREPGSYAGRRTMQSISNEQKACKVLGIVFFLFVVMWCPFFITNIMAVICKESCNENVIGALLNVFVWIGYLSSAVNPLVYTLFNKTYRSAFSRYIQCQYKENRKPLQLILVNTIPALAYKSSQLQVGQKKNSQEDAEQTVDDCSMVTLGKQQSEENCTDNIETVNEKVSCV
Test: In vitro affinity (radioligand binding inhibition) assay, 3[H]-ketanserin, rat cortex
Conditions: read-out: 5-HT2A Inhibition Percentage
measure: inhibition at 1 µM (%)
// return numeric value only (unit: %, not printed)

Prompt: What does the data say about its inhibition at 1 µM? Entry: COc1ccccc1N1CCN(CCn2cnc3ccccc3c2=O)CC1 [Example 6]
Completion: 63

Prompt: Same question, O=c1c2ccccc2ncn1CCN1CCN(c2ccccc2Cl)CC1 [Example 4] this time
Completion: 77

Prompt: Please answer likewise for Cc1ccccc1N1CCN(CCn2cnc3ccccc3c2=O)CC1 [Example 2]
Completion: 82

As a next step, examine the compound that follows.
Prompt: For CCOc1ccccc1N1CCN(CCn2c(CC)nc3ccccc3c2=O)CC1 [Example 10] , what is its reported inhibition at 1 µM?
Completion: 27

----------
Molecular target: 5-HT1A receptors (Rattus norvegicus)
Construct: The assay tissue was rat hippocampus; from tissue; host or cells: rat hippocampus
Sequence (P19327 1-422): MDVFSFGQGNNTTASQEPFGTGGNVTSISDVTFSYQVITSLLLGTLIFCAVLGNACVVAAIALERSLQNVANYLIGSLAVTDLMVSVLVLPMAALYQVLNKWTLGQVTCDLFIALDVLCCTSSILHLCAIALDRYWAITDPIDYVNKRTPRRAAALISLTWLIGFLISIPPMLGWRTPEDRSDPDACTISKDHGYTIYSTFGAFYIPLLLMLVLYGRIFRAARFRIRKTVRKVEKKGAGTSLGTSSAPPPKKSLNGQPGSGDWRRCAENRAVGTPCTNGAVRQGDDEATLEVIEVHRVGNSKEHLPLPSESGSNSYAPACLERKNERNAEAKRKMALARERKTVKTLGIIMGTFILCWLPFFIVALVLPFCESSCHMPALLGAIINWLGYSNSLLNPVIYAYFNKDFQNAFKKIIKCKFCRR
Assay: In vitro affinity (radioligand binding inhibition) assay, 3[H]-8-OH-DPAT, rat hippocampus
Settings: 100 nM; rat hippocampus; read-out: 5-HT1A Inhibition Percentage
In this section we review reported inhibition at 0.1 µM values for a set of compounds.

Below: 3 compounds and their reported inhibition at 0.1 µM.
Prompt: Quick check: inhibition at 0.1 µM of N#Cc1ccccc1N1CCN(CCn2cnc3ccccc3c2=O)CC1 ?
Completion: 49%

Prompt: Lookup CCc1nc2ccccc2c(=O)n1CCN1CCN(c2cccc(C)c2C)CC1
Completion: 76%

Prompt: Would you kindly repeat that for CCc1nc2ccccc2c(=O)n1CCN1CCN(c2ccccc2OC)CC1 ?
Completion: 46%

As a next step, examine the compound that follows.
Prompt: Reported inhibition at 0.1 µM for O=c1c2ccccc2ncn1CCN1CCN(c2ccccc2Cl)CC1 : what is it?
Completion: 84%

----------
Reported values of inhibition at 1 µM for individual entries
Target: 5-HT2A receptors (Rattus norvegicus)
Construct: The assay tissue was rat cortex; from tissue; host or cells: rat cortex
Assay: In vitro affinity (radioligand binding inhibition) assay, 3[H]-ketanserin, rat cortex
Conditions: read-out: 5-HT2A Inhibition Percentage
Experimental: The determination of the activity of the synthesized compounds was conducted through assays assessing affinity with the 5-HT1A and 5-HT2A serotonin receptors. […] In an inhibition experiment, the quantity of an inhibitor substance (non radioactive—sample or compound being tested) included in the incubation is the only variable, meaning that it is possible to determine for each test drug concentration, the binding inhibition percentage of the radioligand. […]
Numbers only here, please. The scale is %.

Before answering, review these 4 worked examples.
Prompt: Can you look up the measured inhibition at 1 µM of CCc1nc2ccccc2c(=O)n1CCN1CCN(c2ccccc2OC)CC1 for me?
Completion: 46

Prompt: Same lookup for N#Cc1ccccc1N1CCN(CCn2cnc3ccccc3c2=O)CC1 , please.
Completion: 78

Prompt: Another compound to check: CCc1nc2ccccc2c(=O)n1CCN1CCN(c2ccccc2Cl)CC1
Completion: 52

Prompt: Next record, please: Cc1cccc(N2CCN(CCn3cnc4ccccc4c3=O)CC2)c1C
Completion: 88

# context switch: different compound, same inhibition at 1 µM
Prompt: Find the recorded inhibition at 1 µM belonging to CCc1nc2ccccc2c(=O)n1CCN1CCN(c2cccc(C)c2C)CC1 and report it.
Completion: 86

----------
Biological target: 5-HT1A receptors (Rattus norvegicus, UniProt P19327)
Construct: The assay tissue was rat hippocampus; from tissue; host or cells: rat hippocampus
Experiment: In vitro affinity (radioligand binding inhibition) assay, 3[H]-8-OH-DPAT, rat hippocampus
Conditions: 100 nM; rat hippocampus; read-out: 5-HT1A Inhibition Percentage
measure: inhibition at 0.1 µM (%)
Give the number; % is assumed, so skip it.

# count of solved cases: 3
Prompt: Quick one: inhibition at 0.1 µM for CCc1nc2ccccc2c(=O)n1CCN1CCN(c2ccccc2Cl)CC1 ?
Completion: 26

Prompt: Continue with Cc1ccccc1N1CCN(CCn2cnc3ccccc3c2=O)CC1
Completion: 51

Prompt: Try this compound next: CCOc1ccccc1N1CCN(CCn2c(CC)nc3ccccc3c2=O)CC1
Completion: 51

***
Prompt: Please give the measured inhibition at 0.1 µM for this compound: COc1ccccc1N1CCN(CCn2cnc3ccccc3c2=O)CC1
Completion: 66

Prompt: Also need Cc1cccc(N2CCN(CCn3cnc4ccccc4c3=O)CC2)c1C , thanks.
Completion: 84

----------
Catalogue of molecules with associated inhibition at 0.03 µM
Target: 5-HT1A receptors (Rattus norvegicus, UniProt P19327)
Construct: The assay tissue was rat hippocampus; from tissue; host or cells: rat hippocampus
Sequence (P19327 1-422): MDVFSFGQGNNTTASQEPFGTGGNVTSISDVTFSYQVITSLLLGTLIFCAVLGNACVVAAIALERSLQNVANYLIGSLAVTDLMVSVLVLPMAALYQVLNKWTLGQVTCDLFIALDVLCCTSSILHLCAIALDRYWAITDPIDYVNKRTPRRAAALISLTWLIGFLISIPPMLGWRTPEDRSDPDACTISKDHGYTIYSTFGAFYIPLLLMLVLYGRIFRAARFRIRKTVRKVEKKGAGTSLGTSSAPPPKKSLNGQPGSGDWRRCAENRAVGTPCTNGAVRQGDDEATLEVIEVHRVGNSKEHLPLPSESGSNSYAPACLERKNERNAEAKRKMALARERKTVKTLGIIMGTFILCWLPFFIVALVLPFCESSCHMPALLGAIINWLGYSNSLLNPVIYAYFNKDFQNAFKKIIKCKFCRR
Experiment: In vitro affinity (radioligand binding inhibition) assay, 3[H]-8-OH-DPAT, rat hippocampus
Details: 30 nM; rat hippocampus; read-out: 5-HT1A Inhibition Percentage
Put down the number, then write its unit next to it.

Study these solved cases before continuing.
Prompt: If you can, please state the reported inhibition at 0.03 µM value of Cc1ccccc1N1CCN(CCn2cnc3ccccc3c2=O)CC1 [Example 2] .
Completion: 21%

Prompt: Please answer likewise for N#Cc1ccccc1N1CCN(CCn2cnc3ccccc3c2=O)CC1 [Example 5]
Completion: 12%

Prompt: Queued: Cc1cccc(N2CCN(CCn3cnc4ccccc4c3=O)CC2)c1C [Example 3]
Completion: 47%

***
Prompt: inhibition at 0.03 µM lookup needed for CCc1nc2ccccc2c(=O)n1CCN1CCN(c2ccccc2Cl)CC1 [Example 11] , thanks.
Completion: 5%
